subjectOfTest: hERG (KCNH2) (Homo sapiens, UniProt Q12809)
Sequence (Q12809 whole entry): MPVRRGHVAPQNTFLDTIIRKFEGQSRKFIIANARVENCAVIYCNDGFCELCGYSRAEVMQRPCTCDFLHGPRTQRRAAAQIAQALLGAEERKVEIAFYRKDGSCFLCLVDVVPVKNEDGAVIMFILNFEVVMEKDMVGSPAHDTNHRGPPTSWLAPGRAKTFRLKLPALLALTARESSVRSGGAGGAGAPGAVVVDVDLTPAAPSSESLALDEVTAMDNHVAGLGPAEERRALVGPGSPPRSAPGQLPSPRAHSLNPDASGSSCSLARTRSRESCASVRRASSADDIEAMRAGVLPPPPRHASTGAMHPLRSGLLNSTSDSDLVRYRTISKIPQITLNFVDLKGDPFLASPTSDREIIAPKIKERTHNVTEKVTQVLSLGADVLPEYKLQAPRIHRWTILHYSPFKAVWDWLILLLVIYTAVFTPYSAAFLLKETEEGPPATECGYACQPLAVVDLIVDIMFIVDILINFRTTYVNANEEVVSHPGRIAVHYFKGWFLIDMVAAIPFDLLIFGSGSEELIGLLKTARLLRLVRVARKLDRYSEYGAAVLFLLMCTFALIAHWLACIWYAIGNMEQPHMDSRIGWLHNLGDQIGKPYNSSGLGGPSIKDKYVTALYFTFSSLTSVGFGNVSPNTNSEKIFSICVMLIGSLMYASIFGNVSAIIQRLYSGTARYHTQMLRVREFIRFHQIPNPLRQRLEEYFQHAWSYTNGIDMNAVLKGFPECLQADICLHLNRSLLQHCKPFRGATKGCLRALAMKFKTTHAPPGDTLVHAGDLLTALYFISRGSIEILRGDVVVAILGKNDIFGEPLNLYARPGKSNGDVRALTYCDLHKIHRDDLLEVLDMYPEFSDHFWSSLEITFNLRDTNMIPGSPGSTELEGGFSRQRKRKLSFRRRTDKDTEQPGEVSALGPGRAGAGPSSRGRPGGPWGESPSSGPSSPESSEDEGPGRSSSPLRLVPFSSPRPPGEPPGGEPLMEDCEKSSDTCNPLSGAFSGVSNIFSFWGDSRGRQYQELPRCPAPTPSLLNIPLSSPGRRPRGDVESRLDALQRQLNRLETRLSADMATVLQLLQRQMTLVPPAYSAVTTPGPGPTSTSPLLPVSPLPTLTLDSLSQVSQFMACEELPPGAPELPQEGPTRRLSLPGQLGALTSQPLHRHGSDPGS
protocolDetails: Inhibition of human ERG expressed in CHO cells at 40 uM with holding potential of -80 mV by whole cell patch clamp assay relative to control
Format: toxicity, cell-based
conditionParameters: CHO cells that express hERG
measurementKind: inhibition at 40 µM (%)
Give just the number in %; leave the unit off.

IN: Which inhibition at 40 µM value belongs to "CCOc1ccc(-c2cncnc2-c2cc(OC)c(OC)c(OC)c2)cc1Cl" ?
OUT: 65

----------
protocolDetails: Cytotoxicity against HK-2 cells assessed as reduction in cell growth measured after 24 hrs by microplate reader analysis
Type: toxicity, cell-based
conditionParameters: human
Documented IC50 at 24 h across a set of compounds
Give just the number in µM; leave the unit off.

CCOc1ccc(-c2cncnc2-c2cc(OC)c(OC)c(OC)c2)cc1Cl = 188

IN: Which IC50 at 24 h value belongs to COc1ccc(/C=C\c2cc(OC)c(OC)c(OC)c2)cc1O [COMBRETASTATIN A4] ?
OUT: 116

// provenance: ChEMBL document CHEMBL5154820
